# ASSAYED SYSTEM: Lymphokine-activated killer T-cell-originated protein kinase (Homo sapiens)
# Sequence (whole entry): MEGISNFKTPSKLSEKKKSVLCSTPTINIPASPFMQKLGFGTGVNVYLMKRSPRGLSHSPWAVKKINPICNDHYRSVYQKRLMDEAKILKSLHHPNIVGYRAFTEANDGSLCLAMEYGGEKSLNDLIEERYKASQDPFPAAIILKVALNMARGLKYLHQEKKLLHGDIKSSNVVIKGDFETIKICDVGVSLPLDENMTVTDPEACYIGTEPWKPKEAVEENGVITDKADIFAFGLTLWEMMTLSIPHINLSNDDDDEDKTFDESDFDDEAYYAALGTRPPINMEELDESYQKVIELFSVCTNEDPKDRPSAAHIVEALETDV
Please enter 1.0 where ΔTm is greater than or equal to 0.3 °C, and 0.0 where it is lower.

Entry CC(C)c1cc(/C=C(\C#N)C(=O)NCCCc2ccccc2)cc(C(C)C)c1O : is its ΔTm no less than 0.3 °C?
0.0

Entry CCCCc1c(-c2ccc(O)cc2)[nH]c2nccnc12 : is its ΔTm no less than 0.3 °C?
1.0

Entry O=C1NC(=O)c2c1c1c3ccccc3[nH]c1n1cncc21 [ISOGRANULATIMIDE] : is its ΔTm no less than 0.3 °C?
1.0

Entry O=C1Nc2ccc(S(=O)(=O)O)cc2/C1=C1/Nc2ccccc2/C1=N\O : is its ΔTm no less than 0.3 °C?
1.0

Entry N#C/C(=C(/N)Sc1ccc(N)cc1)c1ccccc1C(F)(F)F : is its ΔTm no less than 0.3 °C?
0.0

Entry Cc1cc(C=C2C(=O)C=CC2=O)cc(C)c1O : is its ΔTm no less than 0.3 °C?
0.0

Entry Cn1cc(C2=C(c3cn(CCCN)c4ccccc34)C(=O)NC2=O)c2ccccc21 : is its ΔTm no less than 0.3 °C?
0.0

Entry O=C1c2ccccc2-c2n[nH]c3cccc1c23 : is its ΔTm no less than 0.3 °C?
1.0

Entry CN(C)CCCn1cc(C2=C(c3c[nH]c4ccccc34)C(=O)NC2=O)c2ccccc21 : is its ΔTm no less than 0.3 °C?
0.0

Entry O=C(O)c1cc(N(Cc2ccccc2O)Cc2cc(O)ccc2O)ccc1O : is its ΔTm no less than 0.3 °C?
0.0

Entry CN(C)c1ncnc2nc[nH]c12 : is its ΔTm no less than 0.3 °C?
1.0

Entry O=C1C=C2C(=Nc3c2c2c(c4c3=NC3=C4CCC=C3)C=NC=2)CC1 : is its ΔTm no less than 0.3 °C?
1.0

Entry NS(=O)(=O)c1ccc(Nc2nc(OCC3CCCCC3)c3nc[nH]c3n2)cc1 : is its ΔTm no less than 0.3 °C?
1.0

Entry O=C1NC(=O)c2c1c1c3ccccc3n3c1c1c2c2ccccc2n1C1CCC3O1 : is its ΔTm no less than 0.3 °C?
0.0

These data points were gathered from ChEMBL document CHEMBL1145498.
